subject-of-test: RSV F protein (RSV-A) (respiratory syncytial virus, RSV-A) (UniProt P03420)
Sequence (P03420 26-574): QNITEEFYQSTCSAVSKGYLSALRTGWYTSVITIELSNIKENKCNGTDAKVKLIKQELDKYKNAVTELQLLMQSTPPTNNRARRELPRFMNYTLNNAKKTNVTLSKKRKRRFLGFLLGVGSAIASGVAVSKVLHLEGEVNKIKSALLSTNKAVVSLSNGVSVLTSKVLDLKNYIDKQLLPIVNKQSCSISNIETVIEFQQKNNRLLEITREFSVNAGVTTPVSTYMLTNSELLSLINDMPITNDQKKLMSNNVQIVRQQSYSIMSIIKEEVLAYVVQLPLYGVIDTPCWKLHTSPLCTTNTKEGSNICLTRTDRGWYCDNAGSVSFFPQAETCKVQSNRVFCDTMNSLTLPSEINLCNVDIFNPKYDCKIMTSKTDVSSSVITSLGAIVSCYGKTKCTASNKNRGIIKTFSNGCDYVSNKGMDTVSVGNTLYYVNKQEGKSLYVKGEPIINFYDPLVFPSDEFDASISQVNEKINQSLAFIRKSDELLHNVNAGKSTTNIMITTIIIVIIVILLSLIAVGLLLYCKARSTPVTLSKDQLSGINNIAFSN
protocol-description: cell-based or functional assay
Positions of bridges follow the written chain, without caps; N, C: chain ends. Non-standard residues stand in square brackets, D forms with d. Primed or numbered codes have the meaning given here. PEG6′ = not defined here
Measured IC50, syncytia reduction assay values are reported for all entries that follow.
parameter-measured: IC50, syncytia reduction assay (nM)

INSERT INTO results (binder, parameter_measured, scale_unit, measured) VALUES
  ('Ac-[dK][PEG6′][dD][dD]G[dH][dA][dC][dV][dN][dR][dP][dE][dW][dL][dL][dD][dW][dC][dD][dH]-NH2 (disulfide 8-19; also: cholesterol conjugate, trimer) [Chol-Ac-K(PEG6)DDG-RSVP28-trimer]', 'IC50, syncytia reduction assay', 'nM', 240),
  ('Ac-[dK][PEG6′]G[dH][dA][dC][dV][dN][dR][dP][dE][dW][dL][dL][dD][dW][dC]G[dR]G[dR][dR]-NH2 (disulfide 6-17; also: cholesterol conjugate, trimer) [Chol-Ac-K(PEG6)G-RSVP26-GRR-trimer]', 'IC50, syncytia reduction assay', 'nM', 490),
  ('Ac-[dK][PEG6′][dD][dD]G[dH][dA][dC][dV][dN][dR][dP][dE][dW][dL][dL][dD][dW][dC]G[dR]-NH2 (disulfide 8-19; also: cholesterol (Chol) conjugate, site not given here, trimer) [Chol-Ac-K(PEG6)DDG-RSVP26-trimer]', 'IC50, syncytia reduction assay', 'nM', 3200),
  ('Ac-[dS][dM][dC][dV][dN][dR][dP][dE][dW][dL][dL][dD][dW][dC]G[dT]G[dD][dD][PEG6′][dK]-NH2 (disulfide 3-14; also: trimer, linkage not given here) [Ac-RSVP24-GDD(PEG6)K-trimer]', 'IC50, syncytia reduction assay', 'nM', 4600);

Cited source: patent US20180280520A1
